Data origin, for the record: paper PMC11008251

Experiment: PCB52 and monohydroxylated metabolite tissue levels by GC-MS/MS after 4 h nose-only inhalation
Format: in vivo, Sprague–Dawley rats
Conditions: female, Sprague-Dawley, rat, liver, inhaled, female, low dose, mean; read-out: PCB or metabolite detected level, Liver
recorded_endpoint: concentration at 4 h (ng/g)
The response must be a number in ng/g with no trailing unit.

{"columns": ["sample_smiles", "readout_unit", "concentration at 4 h"],
 "data": [
  ["Oc1cc(Cl)c(-c2cc(Cl)ccc2Cl)cc1Cl", "ng/g", 0.2]
]}

Now look at this one.
Given the molecule Clc1ccc(Cl)c(-c2cc(Cl)ccc2Cl)c1 , what is its reported concentration at 4 h?
7

----------
Assay: PCB52 and monohydroxylated metabolite tissue levels by GC-MS/MS after 4 h nose-only inhalation
Assay type: in vivo, Sprague–Dawley rats
Conditions: male, Sprague-Dawley, rat, intestinal content, inhaled, male, high dose, mean; read-out: PCB or metabolite detected level, Intestinal content
concentration at 4 h values, listed per item
// units = ng/g; emit number, no label

{"columns": ["sample_smiles", "recorded_endpoint", "readout_unit", "result_number"],
 "data": [
  ["Oc1cc(Cl)c(-c2cc(Cl)ccc2Cl)cc1Cl", "concentration at 4 h", "ng/g", 0.4]
]}

Lab note: next compound to report on.
May I ask what concentration at 4 h has been recorded for Clc1ccc(Cl)c(-c2cc(Cl)ccc2Cl)c1 ?
1

----------
Test: PCB52 and monohydroxylated metabolite tissue levels by GC-MS/MS after 4 h nose-only inhalation
Assay type: in vivo, Sprague–Dawley rats
Conditions: male, Sprague-Dawley, rat, brain, inhaled, male, low dose, mean; read-out: PCB or metabolite detected level, Brain
recorded_endpoint: concentration at 4 h (ng/g)
Numeric answer only, unit ng/g assumed.

I am curious: what concentration at 4 h value has been reported for Clc1ccc(Cl)c(-c2cc(Cl)ccc2Cl)c1 [PCB52, 2,2′,5,5′-tetrachlorobiphenyl] ?
1

----------
Experiment: PCB52 and monohydroxylated metabolite tissue levels by GC-MS/MS after 4 h nose-only inhalation
Format: in vivo, Sprague–Dawley rats
Settings: female, Sprague-Dawley, rat, intestinal content, inhaled, female, low dose, mean; read-out: PCB or metabolite detected level, Intestinal content
Listed here are compounds together with their documented concentration at 4 h.
Numbers only here, please. The scale is ng/g.

{"columns": ["sample_smiles", "result_number"],
 "data": [
  ["Clc1ccc(Cl)c(-c2cc(Cl)ccc2Cl)c1", 5]
]}

Could you tell me which concentration at 4 h is on file for Oc1cc(Cl)c(-c2cc(Cl)ccc2Cl)cc1Cl ?
4

----------
Experiment: PCB52 and monohydroxylated metabolite tissue levels by GC-MS/MS after 4 h nose-only inhalation
Type: in vivo, Sprague–Dawley rats
Settings: male, Sprague-Dawley, rat, liver, inhaled, male, low dose, mean; read-out: PCB or metabolite detected level, Liver
recorded_endpoint: concentration at 4 h (ng/g)
// return numeric value only (unit: ng/g, not printed)

{"columns": ["sample_smiles", "readout_unit", "concentration at 4 h"],
 "data": [
  ["Oc1cc(Cl)c(-c2cc(Cl)ccc2Cl)cc1Cl", "ng/g", 0.1]
]}

concentration at 4 h lookup needed for Clc1ccc(Cl)c(-c2cc(Cl)ccc2Cl)c1 , thanks.
9

----------
Assay: PCB52 and monohydroxylated metabolite tissue levels by GC-MS/MS after 4 h nose-only inhalation
Format: in vivo, Sprague–Dawley rats
Details: female, Sprague-Dawley, rat, brain, inhaled, female, high dose, mean; read-out: PCB or metabolite detected level, Brain
recorded_endpoint: concentration at 4 h (ng/g)
Entry rule: numbers only, all in ng/g.

// query concentration at 4 h value for entry Clc1ccc(Cl)c(-c2cc(Cl)ccc2Cl)c1 [PCB52, 2,2′,5,5′-tetrachlorobiphenyl]
2
